- Tested on: HOP-92 NSCLC
- Procedure text: NCI tumour cell line growth inhibition, 48 h
TGI listing for selected compounds.

- Compound: "Cc1ccc(-c2cc(C(F)(F)F)nn2-c2ccc(S(N)(=O)=O)cc2)cc1"
  TGI: "29.8 µM"
- Compound: "COC(=O)[C@@H]1CN(C(C)=O)C(=O)N1C(=O)OCc1ccccc1"
  TGI: "> 100 µM"
- Compound: "Nc1ccn(C2CCC(CO)O2)c(=S)n1 (stereo unspecified)"
  TGI: "> 100 µM"
- Compound: "Nc1nc2c(s1)CCc1c-2c(Br)n(Cc2ccccc2)c1Br"
  TGI: "23.9 µM"
- Compound: "COc1ccc(C(=O)COC(=O)[C@H](C[Se][Se]C[C@H](NC(=O)c2ccc(Br)cc2F)C(=O)OCC(=O)c2ccc(OC)cc2)NC(=O)c2ccc(Br)cc2F)cc1"
  TGI: "5.87 µM"
- Compound: "COc1cccc(/C=N/[N-]C(N)=O)c1[O-].[Ni+2].[OH3+].c1ccc(-c2ccccn2)nc1"
  TGI: "98.1 µM"
- Compound: "Cl.Fc1c[c-]c(-c2ccccn2)c(F)c1.[Pt].c1ccc(P(c2ccccc2)C([PH+](c2ccccc2)c2ccccc2)[PH+](c2ccccc2)c2ccccc2)cc1"
  TGI: "5.62 µM"
- Compound: "O=[N+]([O-])c1ccc(Sc2ncnc3nc[nH]c23)c2nonc12"
  TGI: "22.2 µM"
- Compound: "CC1=C/C(=N\\O)C(C(O)(C(F)(F)F)C(F)(F)F)C(C)(C)C1 (stereo unspecified)"
  TGI: "> 10 µM"
- Compound: "CCOC(=O)[C@@]12C[C@](/C=C/OC)(O[Si](C)(C)C)[C@@]13c1cc(OC)c(OC)cc1CCN3C(=O)C2O (stereo partly specified)"
  TGI: "> 100 µM"
- Compound: "Clc1cc(Cl)cc(C2ON=C(c3ccccc3)N2C23CC4CC(CC(C4)C2)C3)c1 (stereo unspecified)"
  TGI: "> 10 µM"

Data provenance: PubChem BioAssay (NCI)
